protocol-details: Solubility of compound by CLND method
Assay type: physicochemical
readout-label: solubility kinetic (µM)

A = O=C(NC1CCN(S(=O)(=O)C[C@H]2CC[C@H](NCc3ccccc3)CC2)CC1)c1cc(C2CC2)on1
B = N[C@H]1CC[C@@H](S(=O)(=O)N2CCC(NC(=O)c3cc(C4CC4)on3)CC2)CC1
C = Cc1ccc(CN[C@H]2CC[C@H](CS(=O)(=O)N3CCC(NC(=O)c4cc(C5CC5)on4)CC3)CC2)cc1
D = Cc1ccccc1CN[C@H]1CC[C@H](CS(=O)(=O)N2CCC(NC(=O)c3cc(C4CC4)on3)CC2)CC1
E = O=C(NC1CCN(S(=O)(=O)C[C@H]2CC[C@H](NCc3ccc(F)cc3)CC2)CC1)c1cc(C2CC2)on1
(Q) Lab note: rank above entries, solubility kinetic ascending. Give the labels in the order requested.
(A) A, E, C, D, B
(A: 1 µM, E: 3 µM, C: 10 µM, D: 15 µM, B: 420 µM)

I = O=C(NC1CCN(S(=O)(=O)C2CCNCC2)CC1)c1cc(C2CC2)on1
II = CCS(=O)(=O)N1CCC(NC(=O)c2cc(C3CC3)on2)CC1
III = CCCN[C@H]1CC[C@H](CS(=O)(=O)N2CCC(NC(=O)c3cc(C4CC4)on3)CC2)CC1
(Q) Ascending by solubility kinetic, please: list the molecules accordingly. Dear reader, please state the labels in the requested order.
(A) III, II, I

* * *

protocol-details: Permeability of compound
Format: ADME
study-conditions: not told; read-out: permeability
readout-label: Papp (×10⁻⁶ cm/s)

>>> print(df.to_string())
                               input_smiles  measurement_units  assay_result
0  O=C(NC1CCN(S(=O)(=O)C[C@H]2CC[C@H](NCc3ccccn3)CC2)CC1)c1cc(C2CC2)on1         ×10⁻⁶ cm/s           6.4

A = O=C(NC1CCN(S(=O)(=O)CCCN2CCCC2)CC1)c1cc(C2CC2)on1
B = CN(C)Cc1ccc(S(=O)(=O)N2CCC(NC(=O)c3cc(C4CC4)on3)CC2)cc1
(Q) Among A and B , whose measured Papp is the smaller figure? To answer, give the label that identifies your chosen option.
(A) A

P = O=C(NC1CCN(S(=O)(=O)C[C@H]2CC[C@H](NCc3cccc(Cl)c3)CC2)CC1)c1cc(C2CC2)on1
Q = O=C(NC1CCN(S(=O)(=O)C2CCNCC2)CC1)c1cc(C2CC2)on1
R = CCCN[C@H]1CC[C@H](CS(=O)(=O)N2CCC(NC(=O)c3cc(C4CC4)on3)CC2)CC1
(Q) Arrange the 3 molecules from largest to smallest Papp. Please reply with the labels ordered as requested. Many thanks.
(A) P, R, Q
(P: 18 ×10⁻⁶ cm/s, R: 3.5 ×10⁻⁶ cm/s, Q: 0.69 ×10⁻⁶ cm/s)

A = Cc1ccc(CN[C@H]2CC[C@H](CS(=O)(=O)N3CCC(NC(=O)c4cc(C5CC5)on4)CC3)CC2)cc1
B = O=C(NC1CCN(S(=O)(=O)C[C@H]2CC[C@H](NCc3ccccc3Cl)CC2)CC1)c1cc(C2CC2)on1
(Q) Please indicate which entry, A or B , has the lower recorded Papp value. State your choice using its label.
(A) A

1 = CC(C)CN[C@H]1CC[C@H](CS(=O)(=O)N2CCC(NC(=O)c3cc(C4CC4)on3)CC2)CC1
2 = O=C(NC1CCN(S(=O)(=O)C[C@H]2CC[C@H](NCc3ccc(F)cn3)CC2)CC1)c1cc(C2CC2)on1
(Q) Hi there, can you help? I need to know whether 1 or 2 has lower measured Papp. Choose, then provide that item's label.
(A) 1
